The reported measurements were obtained from PubChem BioAssay (NCI).

Below is a list of entries, each paired with its recorded growth value.
# System: M14 melanoma
# test-details: NCI-60 one-dose screen, 48 h (100 = growth as untreated, 0 = no growth, -100 = all killed)
# condition-parameters: 10 µM unless noted
The panel holds about 83,000 compounds, 20% with a hit somewhere; the sample as a whole holds those more often.
Answer format: numeric, % implied, no suffix.

compound: Nc1ncnc2c1CN(Cc1ccccc1)CC2
growth [%]: 111

Could you share which growth value was measured for NS(=O)(=O)c1ccc(-n2ncc3c(N/N=C/c4ccccc4)ncnc32)cc1 ? 116

Another compound to look at: Nc1ccccc1C#Cc1ccccc1C#Cc1ccc(OCCCCCCOc2ccc(C#Cc3ccccc3C#Cc3ccccc3N)cc2)cc1 108

And the next one, Oc1c(Cl)cc(Oc2cc(Cl)c(O)c(CN3CCOCC3)c2)cc1CN1CCOCC1 ? 105

Lookup CSc1nc(N)c2c(n1)N(C)C=NS2(=O)=O 106

Same question for COc1cc(/C=C/C(=O)CC(=O)/C=C/c2ccc(OC(=O)C3C4CC5CC(C4)CC3C5)c(OC)c2)ccc1OC(=O)C1C2CC3CC(C2)CC1C3 (stereo unspecified) please. 105

Note, next up: CCCCCCCCCCCCCCCCNC(=O)Nc1ccc2ccccc2c1 94.9

Try this compound next: NS(=O)(=O)c1ccc(-n2ncc3c(SCc4ccccc4)ncnc32)cc1 67

Thanks! And Nc1nc2c(nnn2Cc2ccc(Cl)c(Cl)c2)c(=O)[nH]1 ? 103
